test: Cytotoxicity against human Raji cells assessed as cell viability at 1000 molar ratio after 48 hrs by trypan blue assay; format: cell-based; conditions: read-out: Activity
measure_name: viability at 48 h, 1000 molar ratio (%)

{"compound": "CC(C)(O)CCC(=O)[C@@](C)(O)[C@H]1[C@H](O)C[C@@]2(C)[C@@H]3CC=C4[C@@H](C=C(O[C@@H]5O[C@H](CO)[C@@H](O)[C@H](O)[C@H]5O)C(=O)C4(C)C)[C@]3(C)C(=O)C[C@]12C [BRYOAMARIDE]", "measure_name": "viability at 48 h, 1000 molar ratio", "measured": 60}
{"compound": "C[C@H](CCC(=O)C(C)(C)O)[C@H]1CC[C@@]2(C)[C@@H]3CC=C4[C@@H](CC[C@H](O[C@@H]5O[C@H](CO)[C@@H](O)[C@H](O)[C@H]5O)C4(C)C)[C@]3(C)C(=O)C[C@]12C [BRYONIOSIDE F]", "measure_name": "viability at 48 h, 1000 molar ratio", "measured": 60}

----------
tested on: Raji; test: Inhibition of TPA-induced EBV-early antigen activation in human Raji cells at 100 molar ratio after 48 hrs relative to TPA; values are per cent of control; conditions: human gammaherpesvirus 4
Each entry below carries its recorded level, % of control.

{"compound": "C[C@H](C(O)CC(O)C(C)(C)O[C@@H]1O[C@H](CO)[C@@H](O)[C@H](O)[C@H]1O)[C@H]1CC[C@@]2(C)[C@@H]3CC=C4[C@@H](CC[C@H](O)C4(C)C)[C@]3(C)C(=O)C[C@]12C (some centres undefined) [BRYONIOSIDE E]", "units_text": "%", "level, % of control": 77.2}
{"compound": "C[C@H](CC[C@@H](O)C(C)(C)O)[C@H]1CC[C@@]2(C)[C@@H]3CC=C4[C@@H](CC[C@H](O)C4(C)C)[C@]3(C)C(=O)C[C@]12C", "units_text": "%", "level, % of control": 69.3}
{"compound": "CC(=O)O[C@@H]1[C@@H](O)[C@@H](O)[C@H](O[C@H]2[C@H](O[C@H]3CC[C@@H]4C(=CC[C@@H]5[C@@]4(C)C(=O)C[C@]4(C)[C@@H]([C@H](C)CC[C@@H](O)C(C)(C)O)CC[C@@]54C)C3(C)C)O[C@H](CO)[C@@H](O)[C@@H]2O)O[C@H]1C [BRYONIOSIDE C]", "units_text": "%", "level, % of control": 73.5}
{"compound": "CC1=C(/C=C/C(C)=C/C=C/C(C)=C/C=C/C=C(C)/C=C/C=C(C)/C=C/C2=C(C)CCCC2(C)C)C(C)(C)CCC1", "units_text": "%", "level, % of control": 82.1}

----------
assay: Cytotoxicity against human Raji cells assessed as cell viability at 1000 molar ratio after 48 hrs by trypan blue assay; assay type: cell-based; details: read-out: Activity
Each entry below carries its recorded viability at 48 h, 1000 molar ratio.
measure_name: viability at 48 h, 1000 molar ratio (%)

{"compound": "C[C@H](CC[C@@H](O)C(C)(C)O[C@@H]1O[C@H](CO)[C@@H](O)[C@H](O)[C@H]1O)[C@H]1CC[C@@]2(C)[C@@H]3CC=C4[C@@H](CC[C@H](O)C4(C)C)[C@]3(C)C(=O)C[C@]12C [BRYONIOSIDE A]", "units_text": "%", "measured": 60}
{"compound": "C[C@H](C(O)CC(O)C(C)(C)O[C@@H]1O[C@H](CO)[C@@H](O)[C@H](O)[C@H]1O)[C@H]1CC[C@@]2(C)[C@@H]3CC=C4[C@@H](CC[C@H](O)C4(C)C)[C@]3(C)C(=O)C[C@]12C (stereo not given in full) [BRYONIOSIDE E]", "units_text": "%", "measured": 60}
{"compound": "C[C@H](CC[C@@H](O)C(C)(C)O)[C@H]1CC[C@@]2(C)[C@@H]3CC=C4[C@@H](CC[C@H](O)C4(C)C)[C@]3(C)C(=O)C[C@]12C", "units_text": "%", "measured": 70}
{"compound": "C[C@H](CC[C@@H](O)C(C)(C)O)[C@H]1CC[C@@]2(C)[C@@H]3CC=C4[C@@H](CC[C@H](O[C@@H]5O[C@H](CO)[C@@H](O)[C@H](O)[C@H]5O[C@@H]5O[C@@H](C)[C@H](O)[C@@H](O)[C@H]5O)C4(C)C)[C@]3(C)C(=O)C[C@]12C [BRYONIOSIDE B]", "units_text": "%", "measured": 60}
{"compound": "C[C@H](CCC(=O)C(C)(C)O)[C@H]1CC[C@@]2(C)[C@@H]3CC=C4[C@@H](CC[C@H](O)C4(C)C)[C@]3(C)C(=O)C[C@]12C", "units_text": "%", "measured": 70}
